assay: in vitro; design: Viability of infected HeLa host cells, resazurin conversion, bulk resorufin fluorescence relative to DMSO; settings: human, hela cells; bulk resorufin, mean of 3
measurement type: viability at 28.5 h, 10 µM
Enter the number, and then the unit.

Reported viability at 28.5 h, 10 µM for O=C(NCCCn1ccnc1)c1cc(-c2cccc(Br)c2)nc2ccccc12 [c50e] was 90%

Please fill in: viability at 28.5 h, 10 µM reported for Fc1cccc(F)c1OCCOc1nc(N2CCNCC2)ccc1C(F)(F)F [c21e] = 91.3%

For record OCCNc1nc(Nc2ccc(Br)cc2)nc2ccccc12 [c17e] the listed viability at 28.5 h, 10 µM is 81.2%

Input `O=C(N/N=C\c1ccc([N+](=O)[O-])o1)c1nc(-c2ccccc2)cc(-c2ccccc2)n1` . Output viability at 28.5 h, 10 µM: 98.9%

response.value for C1=C(CCNCCc2ccccc2)c2ccccc2C12CCCC2 [c51e] (field: viability at 28.5 h, 10 µM) = 106%

Record summary for Oc1ccccc1Nc1nc(NC2CCCC2)c2ccccc2n1 [c49e] : reported viability at 28.5 h, 10 µM = 90.6%

Lab book: viability at 28.5 h, 10 µM of COCC(=O)N[C@H]1C[C@H]2C(=O)Nc3ccc(/C=C/c4ccccc4)cc3C(=O)N2C1 [c25e] noted as 113%

So for O=C1C(NCCO)=C(Nc2cccc(Cl)c2)C(=O)c2ccccc21 [c45e] , the logged viability at 28.5 h, 10 µM turned out to be 97.9%

For this compound ( COc1ccc([C@@H]2CN(C)C[C@H]2NC(=O)Nc2ccc(Cl)c(Cl)c2)cc1OC [c39e] ), measured viability at 28.5 h, 10 µM is 84.6%

* * *

assay: in vitro; design: Viability of infected HeLa host cells, resazurin conversion, bulk resorufin fluorescence relative to DMSO; conditions: human, hela cells; bulk resorufin, mean of 2
measurement type: viability at 28.5 h, 5 µM (%)
Answer with a number only, understood to be in %.

Reported viability at 28.5 h, 5 µM ( `CCOc1cc(/C=N/Nc2nnc(C)n2N)ccc1O` ) = 88.7

viability at 28.5 h, 5 µM reported for this compound `c1ccc(-c2nnc3ccccc3c2N2CCNCC2)cc1` : 106

Given item `O=[N+]([O-])c1ccc(-n2cnc3ccccc32)c([N+](=O)[O-])c1` , the value recorded as its viability at 28.5 h, 5 µM is 88.2

* * *

assay: in vitro; details: human, hela cells, % viability
Would you kindly list viability at 28.5 h, 10 µM for each of these molecules?
Return type: number; implicit unit %.

Per the record, `O=[N+]([O-])c1ccc(N2CCN(S(=O)(=O)c3ccc4ccccc4c3)CC2)cc1NCc1ccco1` has viability at 28.5 h, 10 µM of 108

viability at 28.5 h, 10 µM reading for `O=C(O)c1[nH]c2ccccc2c1C(c1cccs1)c1c(C(=O)O)[nH]c2ccccc12` : 118

Per the record, `O=C(CS(=O)(=O)c1ccccc1)Nc1cccc2nsnc12` has viability at 28.5 h, 10 µM of 97.4

So for `Clc1ccc(CSc2cccs2)cn1` , the logged viability at 28.5 h, 10 µM turned out to be 95.5

Lab note: measured viability at 28.5 h, 10 µM of `COc1ccc(NC(=O)c2cc(-c3cccc(Cl)c3)nc3ccccc23)c([N+](=O)[O-])c1` was 86.7

Value of measured viability at 28.5 h, 10 µM for the entry COc1ccc(C(Nc2ccnc(OC)c2C#N)[C@H]2C[C@@H](O)C2)cn1 (stereo partly drawn) : 84.6

* * *

test: in vitro; conditions: human, hela cells, % viability
Exercise: state measured viability at 28.5 h, 10 µM for each of the compounds provided.
Give the value, in units of %, as a plain number.

Looking up `COc1ccc(-c2nnc3ccc(SCC(=O)N4CCCC4)nn23)cc1OC` , I see its viability at 28.5 h, 10 µM listed as 85.9

Data point: `Cc1ccc(Sc2nccn3c(=O)[nH]nc23)c(C)c1` ; viability at 28.5 h, 10 µM = 101

Lab note: measured viability at 28.5 h, 10 µM of `COc1cc2c(cc1NC(=O)CSc1nc3ccccc3[nH]1)oc1ccccc12` was 100

Reported viability at 28.5 h, 10 µM for O=C(O)CC1C(=O)NCCN1Cc1ccc(-c2ccccc2)cc1 (centres unmarked) was 91

Briefly, viability at 28.5 h, 10 µM measured for CCC(Sc1ncccc1C(=O)O)C(=O)O (centres unmarked) : 98.4

Lookup result for CN(C)CCNc1c2c(nc3ccccc13)CCC2 [CBK263732C] ; measured viability at 28.5 h, 10 µM: 98.1

The recorded viability at 28.5 h, 10 µM for entry `CCOc1ccc(-n2c(SCc3nc4ccccc4[nH]3)nc3sc4c(c3c2=O)CCCC4)cc1` equals 103

Reported viability at 28.5 h, 10 µM ( c1ccc(CCCN2CCN(Cc3ccccn3)CC2)cc1 [CBK263461G] ) = 91.6

* * *

experiment: in vitro; conditions: human, hela cells, % viability
measurement type: viability at 28.5 h, 10 µM (%)
All answers are understood in %, so give the number only.

Given item CC(C)(C)OC(=O)N1CCC(CNS(=O)(=O)c2cc(Cl)sc2Cl)CC1 [CBK086018] , the value recorded as its viability at 28.5 h, 10 µM is 114

// Cc1cccn2c(=O)cc(CN3CCCC(N4CCNC4=O)C3)nc12 (stereo not drawn) [CBK304947] : viability at 28.5 h, 10 µM value = 88.4

For record O=C(c1cc(F)c(F)cc1F)N1CCC2(CCN(C(=O)C3COc4ccccc4O3)C2)C1 (stereo not drawn) [CBK131390] the listed viability at 28.5 h, 10 µM is 107

Recorded viability at 28.5 h, 10 µM (compound O=C(Nc1ccc(I)cc1C(=O)NCCN1CCOCC1)c1ccccc1Cl [CBK266245] ): 101

# compound Cc1ccc2cc(CN(Cc3ccco3)C(=O)C3CCCO3)c(O)nc2c1 (stereo not drawn) [CBK269300] ; its viability at 28.5 h, 10 µM = 103

Measured viability at 28.5 h, 10 µM of CN(C)CCNC(=O)c1ccc(-c2cnc(OCC3CCN(C(=O)OC(C)(C)C)CC3)nc2)cc1 [CBK167544] : 89.8

viability at 28.5 h, 10 µM reading for O=C(CSc1nnc(-c2cc(Br)ccc2O)n1-c1ccccc1)N1CCc2ccccc21 [CBK268346] : 105

What the record says about N#Cc1c(SCC(=O)O)nc(-c2cccs2)c2c1CCCC2 [CBK269858] : viability at 28.5 h, 10 µM is 103

viability at 28.5 h, 10 µM recorded for this compound, Cc1cc(C)n(C2CCN(Cc3ccc4ccccc4n3)CC2)n1 [CBK281622] , is 87.9

Entry Cc1nn(C)c2ncc(S(=O)(=O)NC(C)c3ccc(F)cc3)cc12 (stereo not drawn) [CBK305793] ; viability at 28.5 h, 10 µM = 93.4

For reference, reported viability at 28.5 h, 10 µM for CCN1CCN(C(=S)c2ccc(OCC(N)=O)c(OC)c2)CC1 [CBK269293] stands at 86.1

// viability at 28.5 h, 10 µM value for COc1ccc(NC(=S)N2CCN(C/C=C/c3ccccc3)CC2)cc1OC [CBK266891] : 88.7

Just so you know, measured viability at 28.5 h, 10 µM for COc1ccc(C(=O)Nc2ccccc2OC2CCNCC2)cc1 [CBK050282T] came out at 85

Quick note, viability at 28.5 h, 10 µM for COc1ccccc1CNS(=O)(=O)c1ccccc1[N+](=O)[O-] [CBK261699] landed at 102

Reported viability at 28.5 h, 10 µM ( CC(=O)N1CCC2(CCCC[C@H]3CN(C(C)C)CC[C@@H]3NC(=O)CNC2=O)CC1 [CBK292133] ) = 102

Lookup result for O=C(N[C@@H](Cc1ccccc1)C(=O)O)c1cccc2c1-c1ccccc1C2=O [CBK286710] ; measured viability at 28.5 h, 10 µM: 92.1

Entry COc1ccc([C@H]2CN(C(=O)c3ccccc3)[C@@H]3CCN(Cc4ccsc4)C[C@H]23)cc1 [CBK285585] — recorded viability at 28.5 h, 10 µM = 103

Briefly, viability at 28.5 h, 10 µM measured for Cn1ccnc1C1(O)CCN(C(=O)Nc2ccc(F)cc2)CC1 [CBK282277] : 97.4

// sample CCn1ncc2c1CCCC2NC1CCN(CC(F)(F)F)C1=O (stereo not drawn) [CBK305206] , its viability at 28.5 h, 10 µM was 89.5

The compound listed as O=C(O)CCC(=O)Nc1ccccc1C(=O)NC1CCCCC1 [CBK267674] has a reported viability at 28.5 h, 10 µM of 105

Sample O=S(=O)(Nc1nncs1)c1ccccc1 [CBK045489] ; viability at 28.5 h, 10 µM observed: 86.7

Note to self: viability at 28.5 h, 10 µM recorded for Cc1noc(C)c1CCC(=O)NCc1cccc(C#N)c1 [CBK305938] was 108

What the record says about CSc1nc2ccc(NC(=O)CSc3nnnn3-c3ccccc3)cc2s1 [CBK263549] : viability at 28.5 h, 10 µM is 88.3

// recorded viability at 28.5 h, 10 µM for CC(=O)Nc1ccc(-c2ccc(C(=O)N3CCN(C(=O)c4ccco4)CC3)cn2)cc1 [CBK160186] : 85.8

The compound COC(=O)c1ccc(CN2CCC(Oc3nccnc3OCc3ccc(Cl)c(Cl)c3)CC2)o1 [CBK153782] showed viability at 28.5 h, 10 µM equal to 84.2

Consider COc1nc(OC)nc(OC2=CC(=O)CC(C)(C)C2)n1 [CBK020772] . Its measured viability at 28.5 h, 10 µM is 95.5

So, Cc1ccc(C(=O)C2=C(O)C(=O)N(CCN(C)C)C2c2ccccn2)o1 (stereo not drawn) [CBK266536] ? Its viability at 28.5 h, 10 µM was 119

Sure, the documented viability at 28.5 h, 10 µM for Nc1ncnc2c1[nH]c(=O)n2[C@H]1C[C@@H](O)[C@@H](CO)O1 [CBK201284] is 98.3

O=C(NCc1ccc2c(c1)OCO2)c1cnc2sccn2c1=O [CBK287446] yielded viability at 28.5 h, 10 µM of 91

According to the records, this compound CC(=O)c1cccc(NC(=O)Cn2nc(C)ccc2=O)c1 [CBK304653] displays viability at 28.5 h, 10 µM of 101

Entry COc1ccc2[nH]cc(CC(=O)Nc3nc4c(OC)cccc4s3)c2c1 [CBK149279] , viability at 28.5 h, 10 µM reported as 97.8

The compound [O-][S+](c1ccc(Cl)c(Cl)c1)c1cc2c(N3CCCNCC3)nccc2s1 (stereo not drawn) [CBK038304C] showed viability at 28.5 h, 10 µM equal to 71.2

// viability at 28.5 h, 10 µM value for COc1ccc(-c2nn(C)c(=O)c3ccccc23)cc1CNC(=O)c1cc([N+](=O)[O-])ccc1OC [CBK266229] : 116
